test system: 648629-189-R-J1-PDC complex spheroids viability; assay: Anticancer human tumor 648629-189-R-J1-PDC patient-derived bladder carcinoma cell line growth inhibition [CLK]; details: second compound 0.1 µM; first compound 10 µM; active = viability on the fitted dose curve at most 10% of control; inactive = the rest
Permitted responses: T = active, F = inactive

Query: Outcome logged for C=C(F)C(=O)N1CCN(c2nc(OCC3CCCN3C)nc3c2CCN(c2cccc4cccc(Cl)c24)C3)CC1CC#N (centres undefined) + CNC(=O)c1ccc(Nc2nc(OC3CCCC3)c3c(-c4ccc5nc(C)oc5c4)c[nH]c3n2)c(OC)c1 in this assay:
Result: T

Query: Could you please tell me the result logged for Nc1ccccc1NC(=O)c1ccc(CNC(=O)OCc2cccnc2)cc1 + CN1CCN(c2cc(C(=O)Nc3cc4cc(-c5cnn(C)c5)ccc4cn3)ccn2)CC1 in this assay?
Result: T

Query: What is the recorded call for this compound in the test? CC(=O)O[C@H]1C(=O)[C@@]2(C)[C@H]([C@H](OC(=O)c3ccccc3)[C@]3(O)C[C@H](OC(=O)[C@H](O)[C@@H](NC(=O)c4ccccc4)c4ccccc4)C(C)=C1C3(C)C)[C@]1(OC(C)=O)CO[C@@H]1C[C@@H]2O + CNC(=O)c1ccc(Nc2nc(OC3CCCC3)c3c(-c4ccc5nc(C)oc5c4)c[nH]c3n2)c(OC)c1
Result: F

Query: Look up the recorded call for COC1C=CCC(C)C(C)S(=O)(=O)NC(=O)c2ccc3c(c2)N(CC2CCC21)CC1(CCCc2cc(Cl)ccc21)CO3 (centres undefined) + CN1CCN(c2cc(C(=O)Nc3cc4cc(-c5cnn(C)c5)ccc4cn3)ccn2)CC1 in this test.
Result: T

Query: Please let me know the test result on file for CCCS(=O)(=O)Nc1ccc(F)c(C(=O)c2c[nH]c3ncc(-c4ccc(Cl)cc4)cc23)c1F + CN1CCN(c2cc(C(=O)Nc3cc4cc(-c5cnn(C)c5)ccc4cn3)ccn2)CC1 .
Result: F

Query: Write down the call the test reported for this compound. Item: C=C(F)C(=O)N1CCN(c2nc(OCC3CCCN3C)nc3c2CCN(c2cccc4cccc(Cl)c24)C3)CC1CC#N (centres undefined) + CN1CCN(c2cc(C(=O)Nc3cc4cc(-c5cnn(C)c5)ccc4cn3)ccn2)CC1
Result: T

Query: So what was the verdict on C#Cc1c(F)ccc2cc(O)cc(-c3ncc4c(N5CC6CCC(C5)N6)nc(OCC56CCCN5CC(F)C6)nc4c3F)c12 (centres undefined) + CN1CCN(c2cc(C(=O)Nc3cc4cc(-c5cnn(C)c5)ccc4cn3)ccn2)CC1 in this test?
Result: F

Query: I would be grateful if you could indicate the recorded call for CCCS(=O)(=O)Nc1ccc(F)c(C(=O)c2c[nH]c3ncc(-c4ccc(Cl)cc4)cc23)c1F + CNC(=O)c1ccc(Nc2nc(OC3CCCC3)c3c(-c4ccc5nc(C)oc5c4)c[nH]c3n2)c(OC)c1 .
Result: F

Query: // outcome(item) with item = CC(Nc1ccc2c(c1)OCCn1cc(N3C(=O)OCC3C(F)F)nc1-2)C(N)=O (centres undefined) + CNC(=O)c1ccc(Nc2nc(OC3CCCC3)c3c(-c4ccc5nc(C)oc5c4)c[nH]c3n2)c(OC)c1
Result: F

====

test system: 648629-189-R-J1-PDC complex spheroids viability; assay: Anticancer human tumor 648629-189-R-J1-PDC cell line growth inhibition [CLK]; conditions: second compound 3.16 µM; first compound 10 µM; active compounds read low;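 note: drug exposure lasted seven days before viability readout; 100% = DMSO vehicle control wells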
Measured quantity: viability, T/C (%)
Return type: number; implicit unit %.

Query: So what's the measured viability, T/C for this one? COc1cccc2c1C(=O)c1c(O)c3c(c(O)c1C2=O)CC(O)(C(=O)CO)CC3OC1CC(N)C(O)C(C)O1 (stereo not drawn) + CN1CCN(c2cc(C(=O)Nc3cc4cc(-c5cnn(C)c5)ccc4cn3)ccn2)CC1
Result: 0.08

Query: Field request: viability, T/C | item: COc1ccc([C@@H](O)c2cc(-c3ncnc4cc(N5CCOCC5)ccc34)c(F)cc2Cl)nn1 + CNC(=O)c1ccc(Nc2nc(OC3CCCC3)c3c(-c4ccc5nc(C)oc5c4)c[nH]c3n2)c(OC)c1
Result: 18.1

Query: I have this compound here, Nc1ccn(C2OC(CO)C(O)C2(F)F)c(=O)n1 (stereo not drawn) + CNC(=O)c1ccc(Nc2nc(OC3CCCC3)c3c(-c4ccc5nc(C)oc5c4)c[nH]c3n2)c(OC)c1 , and I need its recorded viability, T/C.
Result: 7.1
